Source of measurements: PubChem BioAssay (NCI)

Provide the reported TGI of each item.
# Tested on: COLO 205 colon
# Method notes: NCI tumour cell line growth inhibition, 48 h

Count: 6. Required value per item: TGI.
1. CC(=O)Nc1nc(NC(C)=O)c2[nH]c(CO)nc2n1
2. Cc1cc2c(C)[nH]nc2c(C(=O)O)c1C
3. Nc1n[nH]c2cc(F)c([C@@H]3Nc4ccc5[nH]ncc5c4[C@H]4C5CCC(C5)[C@@H]34)cc12 (stereo partly drawn)
4. Nc1nc(SCCC/C=C/I)nc2c1ncn2C1OC(COP(=O)(O)O)C(O)C1O (stereo not drawn)
5. O=C1NC(=NC(CO)Cc2ccccc2)S/C1=C\c1ccc2ncccc2c1 (stereo not drawn)
6. Cc1ccccc1C(=N)c1ccccc1Cc1cccc2ccccc12

RESULT:
> 100 µM
> 100 µM
0.527 µM
> 100 µM
> 25 µM
76.9 µM

Count: 2. Required value per item: TGI.
1. Cc1ccc(-c2csc(=Nc3ccccc3)n2NC(=O)c2ccncc2)cc1
2. Cn1c2ccc3cc2c(=S)c2cc(ccc21)OCCOCCOCCOCCOCCOCCO3

RESULT:
1. 82.5 µM
2. > 10 µM
